The measured values listed here are drawn from the supplement of paper PMC3353916.

Test system: Sindbis virus TE/5'2J-GFP
Test: percent infected (GFP+ in RFP+ ISG-expressing cells); higher = more infection (less antiviral activity)
Conditions: experiment: confirmatory screen 2; BHK/HA-Zeo (control)
Decide using percent infected: a value greater than or equal to 90% is Fulfilled, a smaller one is Not fulfilled.

Could you tell me if the measured percent infected of MNTIVFNKLSGAVLFEDGGASERERGGRPYSGVLDSPHARPEVGIPDGPPLKDNLGLRHRRTGARQNGGKVRHKRQALQDMARPLKQWLYKHRDNPYPTKTEKILLALGSQMTLVQVSNWFANARRRLKNTVRQPDLSWALRIKLYNKYVQGNAERLSVSSDDSCSEDGENPPRTHMNEGGYNTPVHHPVIKSENSVIKAGVRPESRASEDYVAPPKYKSSLLNRYLNDSLRHVMATNTTMMGKTRQRNHSGSFSSNEFEEELVSPSSSETEGNFVYRTDTLENGSNKGESAANRKGPSKDDTYWKEINAAMALTNLAQGKDKLQGTTSCIIQKSSHIAEVKTVKVPLVQQF [MKX] reaches 90% or more?
Fulfilled

Could you tell me if the measured percent infected of MPITRMRMRPWLEMQINSNQIPGLIWINKEEMIFQIPWKHAAKHGWDINKDACLFRSWAIHTGRYKAGEKEPDPKTWKANFRCAMNSLPDIEEVKDQSRNKGSSAVRVYRMLPPLTKNQRKERKSKSSRDAKSKAKRKSCGDSSPDTFSDGLSSSTLPDDHSSYTVPGYMQDLEVEQALTPALSPCAVSSTLPDWHIPVEVVPDSTSDLYNFQVSPMPSTSEATTDEDEEGKLPEDIMKLLEQSEWQPTNVDGKGYLLNEPGVQPTSVYGDFSCKEEPEIDSPGGDIGLSLQRVFTDLKNMDATWLDSLLTPVRLPSIQAIPCAP [IRF1] reaches 90% or more?
Not fulfilled

Could you tell me if the measured percent infected of MSSAIERKSLDPSEEPVDEVLQIPPSLLTCGGCQQNIGDRYFLKAIDQYWHEDCLSCDLCGCRLGEVGRRLYYKLGRKLCRRDYLRLFGQDGLCASCDKRIRAYEMTMRVKDKVYHLECFKCAACQKHFCVGDRYLLINSDIVCEQDIYEWTKINGMI [LMO2] reaches 90% or more?
Fulfilled

Could you tell me if the measured percent infected of MEKGPVRAPAEKPRGARCSNGFPERDPPRPGPSRPAEKPPRPEAKSAQPADGWKGERPRSEEDNELNLPNLAAAYSSILSSLGENPQRQGLLKTPWRAASAMQFFTKGYQETISDVLNDAIFDEDHDEMVIVKDIDMFSMCEHHLVPFVGKVHIGYLPNKQVLGLSKLARIVEIYSRRLQVQERLTKQIAVAITEALRPAGVGVVVEATHMCMVMRGVQKMNSKTVTSTMLGVFREDPKTREEFLTLIRS [GCH1] reaches 90% or more?
Fulfilled

Could you tell me if the measured percent infected of MPSLWDRFSSSSTSSSPSSLPRTPTPDRPPRSAWGSATREEGFDRSTSLESSDCESLDSSNSGFGPEEDTAYLDGVSLPDFELLSDPEDEHLCANLMQLLQESLAQARLGSRRPARLLMPSQLVSQVGKELLRLAYSEPCGLRGALLDVCVEQGKSCHSVGQLALDPSLVPTFQLTLVLRLDSRLWPKIQGLFSSANSPFLPGFSQSLTLSTGFRVIKKKLYSSEQLLIEEC [DDIT4] reaches 90% or more?
Fulfilled

----------
Can you tell me percent infected for the items I'm about to list?
Test system: Sindbis virus TE/5'2J-GFP
Experiment: percent infected (GFP+ in RFP+ ISG-expressing cells); higher = more infection (less antiviral activity)
Details: experiment: confirmatory screen 1; BHK/NZAP-Zeo (ZAP)
Reply with just the number (in %).

Entry under test: MSLRGSLSRLLQTRVHSILKKSVHSVAVIGAPFSQGQKRKGVEHGPAAIREAGLMKRLSSLGCHLKDFGDLSFTPVPKDDLYNNLIVNPRSVGLANQELAEVVSRAVSDGYSCVTLGGDHSLAIGTISGHARHCPDLCVVWVDAHADINTPLTTSSGNLHGQPVSFLLRELQDKVPQLPGFSWIKPCISSASIVYIGLRDVDPPEHFILKNYDIQYFSMRDIDRLGIQKVMERTFDLLIGKRQRPIHLSFDIDAFDPTLAPATGTPVVGGLTYREGMYIAEEIHNTGLLSALDLVEVNPQLATSEEEAKTTANLAVDVIASSFGQTREGGHIVYDQLPTPSSPDESENQARVRI [ARG2] . Its percent infected was 64

Entry under test: MSSWSRQRPKSPGGIQPHVSRTLFLLLLLAASAWGVTLSPKDCQVFRSDHGSSISCQPPAEIPGYLPADTVHLAVEFFNLTHLPANLLQGASKLQELHLSSNGLESLSPEFLRPVPQLRVLDLTRNALTGLPPGLFQASATLDTLVLKENQLEVLEVSWLHGLKALGHLDLSGNRLRKLPPGLLANFTLLRTLDLGENQLETLPPDLLRGPLQLERLHLEGNKLQVLGKDLLLPQPDLRYLFLNGNKLARVAAGAFQGLRQLDMLDLSNNSLASVPEGLWASLGQPNWDMRDGFDISGNPWICDQNLSDLYRWLQAQKDKMFSQNDTRCAGPEAVKGQTLLAVAKSQ [LRG1] . Its percent infected was 68.2

Entry under test: MERISAFFSSIWDTILTKHQEGIYNTICLGVLLGLPLLVIITLLFICCHCCWSPPGKRGQQPEKNKKKKKKKKKKDEEDLWISAQPKLLQMEKRPSLPV [KIAA0040] . Its percent infected was 62.7

----------
System: Sindbis virus TE/5'2J-GFP
Experiment: percent infected (GFP+ in RFP+ ISG-expressing cells); higher = more infection (less antiviral activity)
Conditions: experiment: confirmatory screen 3; BHK/NZAP-Zeo (ZAP)
endpoint: percent infected (%)
Reply with just the number (in %).

Entry under test: MKVSAAALAVILIATALCAPASASPYSSDTTPCCFAYIARPLPRAHIKEYFYTSGKCSNPAVVFVTRKNRQVCANPEKKWVREYINSLEMS [CCL5] . Its percent infected was 93.3

Entry under test: MRSARSTALNRGEQRAVRYYSHMKLNMAEEEDYMSDSFINVQEDIRPGLPMLRQIREARRKEEKQQEANLKNRQKSLKEEEQERRDIGLKNALGCENKGFALLQKMGYKSGQALGKSGGGIVEPIPLNIKTGKSGIGHEASLKRKAEEKLESYRKKIHMKNQAEEKAAEQFRMRLKNKQDEMKLEGDLRRSQRACQQLDVQKNIQVPREAWYWLRLEEETEEDEEEKEQDEDEYKSEDLSVLEKLQILTSYLREEHLYCIWCGTAYEDKEDLSSNCPGPTSADHD [CCDC75] . Its percent infected was 92.8

Entry under test: MPGKKARKNAQPSPARAPAELEVECATQLRRFGDKLNFRQKLLNLISKLFCSGT [PMAIP1] . Its percent infected was 92.4

Entry under test: MPVERMRMRPWLEEQINSNTIPGLKWLNKEKKIFQIPWMHAARHGWDVEKDAPLFRNWAIHTGKHQPGVDKPDPKTWKANFRCAMNSLPDIEEVKDKSIKKGNNAFRVYRMLPLSERPSKKGKKPKTEKEDKVKHIKQEPVESSLGLSNGVSDLSPEYAVLTSTIKNEVDSTVNIIVVGQSHLDSNIENQEIVTNPPDICQVVEVTTESDEQPVSMSELYPLQISPVSSYAESETTDSVPSDEESAEGRPHWRKRNIEGKQYLSNMGTRGSYLLPGMASFVTSNKPDLQVTIKEESNPVPYNSSWPPFQDLPLSSSMTPASSSSRPDRETRASVIKKTSDITQARVKSC [IRF2] . Its percent infected was 39.2

----------
Can you tell me percent infected for the items I'm about to list?
System: Sindbis virus TE/5'2J-GFP;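 also: Interferon-defective BHK-21 derivatives, ZAP line overexpressing the rat ZAP N-terminal zinc finger domain fused to Zeocin resistance, GFP scored within live singlet TagRFP+ cells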
Assay: percent infected (GFP+ in RFP+ ISG-expressing cells); higher = more infection (less antiviral activity)
Settings: experiment: confirmatory screen 3; BHK/NZAP-Zeo (ZAP)
Reply with just the number (in %).

Entry under test: MSSENCFVAENSSLHPESGQENDATSPHFSTRHEGSFQVPVLCAVMNVVFITILIIALIALSVGQYNCPGQYTFSMPSDSHVSSCSEDWVGYQRKCYFISTVKRSWTSAQNACSEHGATLAVIDSEKDMNFLKRYAGREEHWVGLKKEPGHPWKWSNGKEFNNWFNVTGSDKCVFLKNTEVSSMECEKNLYWICNKPYK [CD69] . Its percent infected was 93

Entry under test: MNTRNRVVNSGLGASPASRPTRDPQDPSGRQGELSPVEDQREGLEAAPKGPSRESVVHAGQRRTSAYTLIAPNINRRNEIQRIAEQELANLEKWKEQNRAKPVHLVPRRLGGSQSETEVRQKQQLQLMQSKYKQKLKREESVRIKKEAEEAELQKMKAIQREKSNKLEEKKRLQENLRREAFREHQQYKTAEFLSKLNTESPDRSACQSAVCGPQSSTWKLPILPRDHSWARSWAYRDSLKAEENRKLQKMKDEQHQKSELLELKRQQQEQERAKIHQTEHRRVNNAFLDRLQGKSQPGGLEQSGGCWNMNSGNSWGI [EPSTI1] . Its percent infected was 94.4
